- CONDITION SET: in 1,4-dioxane, 303.15 K
REPORTED METRIC: solubility (mole fraction)
The answer should be a number; do not append a unit.

Can you look up the measured solubility (mole fraction) of Cc1c(Cl)cccc1Nc1ccccc1C(=O)O for me? 0.0399

---

- CONDITION SET: in n-pentanol, 308.15 K
REPORTED METRIC: solubility (mole fraction)
The answer should be a number; do not append a unit.

Can you look up the measured solubility (mole fraction) of Cc1c(Cl)cccc1Nc1ccccc1C(=O)O for me? 0.0112

---

- CONDITION SET: in cyclohexane, 303.15 K
REPORTED METRIC: solubility (mole fraction)
The answer should be a number; do not append a unit.

Can you look up the measured solubility (mole fraction) of Cc1c(Cl)cccc1Nc1ccccc1C(=O)O for me? 0.000116
